Source of measurements: patent US7795294B2

Biological target: human CB1 receptor (Homo sapiens)
Construct: expressed in transfected cells; host or cells: SK-N-MC cells, stably transfected with pcDNA3 CB-1 (human); semi-purified membrane pellet
Sequence (P21554 whole entry): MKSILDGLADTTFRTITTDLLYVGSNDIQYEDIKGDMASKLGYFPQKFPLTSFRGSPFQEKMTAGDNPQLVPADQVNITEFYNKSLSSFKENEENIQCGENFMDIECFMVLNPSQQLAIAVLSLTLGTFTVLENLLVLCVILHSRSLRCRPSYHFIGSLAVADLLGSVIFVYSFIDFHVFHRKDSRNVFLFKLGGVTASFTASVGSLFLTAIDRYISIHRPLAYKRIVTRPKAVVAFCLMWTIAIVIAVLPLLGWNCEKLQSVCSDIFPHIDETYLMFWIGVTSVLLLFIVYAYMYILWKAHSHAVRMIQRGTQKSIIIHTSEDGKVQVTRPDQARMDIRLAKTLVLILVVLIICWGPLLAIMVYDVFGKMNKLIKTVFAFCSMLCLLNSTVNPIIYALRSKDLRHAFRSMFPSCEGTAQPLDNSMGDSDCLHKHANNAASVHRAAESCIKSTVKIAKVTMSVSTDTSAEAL
Assay: Binding assay for CB1 agonists or inverse agonists, [3H]-CP-55,940 displacement on membranes of transfected SK-N-MC cells
Lab note: cut-off is 10 nM. Strictly less in IC50 is class 1. Exactly 10 nM or more is class 0.

| compound | labelValue |
| --- | --- |
| O=C(NN1CCCCC1)[C@@H]1CCCc2c1nn(-c1ccc(Cl)cc1Cl)c2-c1ccc(Br)cc1 [Cpd 51] | class 0 |
| C[C@@H](NC(=O)[C@H]1CCCc2c1nn(-c1ccc(Cl)cc1Cl)c2-c1ccc(Cl)cc1)c1ccccc1 [Cpd 39] | class 0 |
| Cc1ccc(-c2c3c(nn2Cc2ccccc2)C(C(=O)NC2C4(C)CCC(C4)C2(C)C)CCC3)cc1 (stereo not drawn) [Cpd 6] | class 0 |
| CC(NC(=O)C1CCCc2c1nn(Cc1ccccc1)c2-c1cccc(F)c1)C1CCCCC1 (stereo not drawn) [Cpd 9] | class 0 |
| COc1ccc(-c2c3c(nn2-c2ccc(Cl)cc2Cl)[C@@H](C(=O)N[C@H](C)c2ccccc2)CCC3)cc1 [Cpd 25] | class 1 |
| CC(NC(=O)C1CCCc2c1nn(Cc1ccccc1)c2-c1cccc(F)c1)C12CCC3CC(CC3C1)C2 (stereo not drawn) [Cpd 20] | class 0 |
| O=C(N[C@H](CO)c1ccccc1)[C@H]1CCCc2c1nn(-c1ccc(Cl)cc1Cl)c2-c1ccc(Br)s1 [Cpd 56] | class 0 |
| C[C@@H](NC(=O)[C@@H]1CCCc2c1nn(-c1ccc(Cl)cc1Cl)c2-c1ccc(Cl)cc1)c1ccccc1 [Cpd 40] | class 1 |

Query: Hello, is IC50 of the following compound strictly smaller than 10 nM? COc1ccc(-c2c3c(nn2-c2ccc(Cl)cc2Cl)C(C(=O)N[C@H](C)c2ccccn2)CCC3)cc1 (stereo partly drawn) [Cpd 27]
Response: class 0

Query: Lab log: compare recorded IC50 with 10 nM; is it strictly lower for Cc1ccc(-c2c3c(nn2Cc2ccccc2)C(C(=O)NC(C)C2CCCCC2)CCC3)cc1 (stereo not drawn) [Cpd 8] ?
Response: class 0

Query: Hi there! Is IC50 for O=C(NN1CCCCC1)C1CCCc2c1nn(-c1ccc(Cl)cc1Cl)c2-c1ccc(Br)cc1 (stereo not drawn) [Cpd 41] below 10 nM, do you know?
Response: class 0

Query: Is IC50 of C[C@@H](NC(=O)C1CCCc2c1nn(-c1ccc(Cl)cc1Cl)c2-c1ccc(Br)cc1)C1CCCCC1 (stereo partly drawn) [Cpd 44] strictly below 10 nM?
Response: class 1

Query: hey, is IC50 for COc1ccc(-n2nc3c(c2-c2ccc(C)cc2)CCCC3C(=O)NC(C)C23CCC4CC(CC4C2)C3)cc1 (stereo not drawn) [Cpd 2] lower than 10 nM or not?
Response: class 0

Query: Confirm or reject: IC50 of COc1ccc(-n2nc3c(c2-c2ccc(C)cc2)CCCC3C(=O)N[C@@H]2C3CCC(C3)[C@@H]2CO)cc1 (stereo partly drawn) [Cpd 17] lies strictly below 10 nM
Response: class 0

Query: In plain terms, does C[C@@H](NC(=O)C1CCCc2c1nn(-c1ccc(Cl)cc1Cl)c2-c1ccc(F)cc1)C1CCCCC1 (stereo partly drawn) [Cpd 36] come in under 10 nM for IC50?
Response: class 1

Query: Strictly below 10 nM: is that where IC50 of O=C(N[C@H](CO)c1ccccc1)[C@@H]1CCCc2c1nn(-c1ccc(Cl)cc1Cl)c2-c1ccc(Br)s1 [Cpd 57] sits?
Response: class 0

Query: Is the reported IC50 for CCOC(=O)[C@H]1C2CCC(C2)[C@@H]1NC(=O)C1CCCc2c1nn(-c1ccc(OC)cc1)c2-c1ccc(C)cc1 (stereo partly drawn) [Cpd 3] strictly below 10 nM?
Response: class 0

Query: Answer whether the compound C[C@@H](NC(=O)[C@@H]1CCCc2c1nn(-c1ccc(Cl)cc1Cl)c2-c1ccc(Cl)s1)c1ccccc1 [Cpd 49] has IC50 strictly less than 10 nM
Response: class 1
